# system.name: Rap guanine nucleotide exchange factor 3 (Homo sapiens) (UniProt O95398)
# Sequence (O95398 whole entry, looked up): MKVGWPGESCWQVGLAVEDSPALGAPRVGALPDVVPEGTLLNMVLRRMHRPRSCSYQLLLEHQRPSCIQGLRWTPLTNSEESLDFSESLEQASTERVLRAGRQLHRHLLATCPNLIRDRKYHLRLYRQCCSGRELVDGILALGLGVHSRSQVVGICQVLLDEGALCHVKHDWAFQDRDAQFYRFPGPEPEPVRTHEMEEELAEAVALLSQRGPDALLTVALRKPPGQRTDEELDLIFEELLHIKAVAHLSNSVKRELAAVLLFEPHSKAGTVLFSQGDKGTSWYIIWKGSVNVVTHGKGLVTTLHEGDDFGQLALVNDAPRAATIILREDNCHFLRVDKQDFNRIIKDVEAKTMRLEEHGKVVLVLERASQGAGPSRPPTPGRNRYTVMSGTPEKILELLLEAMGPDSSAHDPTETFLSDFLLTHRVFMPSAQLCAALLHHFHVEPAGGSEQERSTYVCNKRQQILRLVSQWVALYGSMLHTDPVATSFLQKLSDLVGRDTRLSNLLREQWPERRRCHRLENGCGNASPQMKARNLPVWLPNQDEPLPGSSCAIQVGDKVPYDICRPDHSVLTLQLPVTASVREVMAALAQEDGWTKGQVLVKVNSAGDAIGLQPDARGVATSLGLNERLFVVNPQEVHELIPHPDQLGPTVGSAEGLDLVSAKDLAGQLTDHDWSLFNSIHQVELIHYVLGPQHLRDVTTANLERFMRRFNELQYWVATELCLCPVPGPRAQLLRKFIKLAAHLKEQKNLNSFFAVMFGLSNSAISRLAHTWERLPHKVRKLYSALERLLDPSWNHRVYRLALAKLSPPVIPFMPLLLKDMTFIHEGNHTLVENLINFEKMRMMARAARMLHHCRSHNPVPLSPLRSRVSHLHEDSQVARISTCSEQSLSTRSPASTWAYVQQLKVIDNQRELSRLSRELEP
# protocol.details: Confirmatory qHTS for antagonist of cAMP-regulated guanine nucleotide exchange factor 3 (EPAC1) (AID 1645880); note: nearly all actives have a fitted effect of over 55% in size
# condition.description: EPAC1 Rap1B-BODIPY-GDP exchange, fluorescence; series mostly up to 115 µM
Results filed as inconclusive are left out. The source made the active and inactive calls. Calls come from the whole dose curve; as a rule, active = well fitted inhibition curve with a large enough effect; inconclusive = small, poorly fitted or top-dose-only effect; inactive = no such curve, though single readings can be large or run the other way.
Mark one answer only. Choices: y = active, n = inactive

These solved cases illustrate the format of a correct answer.
| compound | assigned.label |
| --- | --- |
| CC(C(=O)Nc1ccccc1C(F)(F)F)n1nc(-c2ccccc2)c2c(c1=O)CCCC2 (centres undefined) | n |
| Oc1ccc(C2=Nn3c(nnc3-c3ccco3)SC2)cc1O | y |
| Cc1ccc2nc3sc(C(=O)N4CCCc5ccccc54)c(N)c3cc2c1 | n |

Prompt: Recorded call for `O=c1c2ccccc2oc2ccc(Oc3ccccc3)cc12` ?
Completion: n

Prompt: Per the records of this test, what outcome belongs to `Cc1cc(C(=O)NCc2nc(-c3cccc(NC(=O)c4ccccc4)c3)oc2C)nc(C)n1` ?
Completion: n

Prompt: Lab log entry: `CN(Cc1ccccc1F)c1nc(-c2cccs2)nc2ccccc12` — outcome as called in the assay?
Completion: n

Prompt: Dear colleague, could you share the recorded outcome for `CC(=O)Nc1ccc(Nc2nc3ccccc3nc2NS(=O)(=O)c2ccc(Cl)c([N+](=O)[O-])c2)cc1` when you have a moment?
Completion: y

Prompt: Outcome logged for `O=C(c1ccccc1)c1ccc2nc(-c3ccco3)c(-c3ccco3)nc2c1` in this assay:
Completion: y

Prompt: Can you look up the reported call for `CC(=O)c1cccc(OC(=O)C2=CC=CN3CCS(=O)(=O)N=C23)c1` for me?
Completion: n

Prompt: Outcome? `O=C(CN(c1ccc(Cl)c(C(F)(F)F)c1)S(=O)(=O)c1ccccc1)N1CCc2ccccc2C1`
Completion: n

Prompt: What did this assay record as the result for `Cc1ccc(N(Cc2cccs2)C(=O)c2ccccc2Cl)cc1` ?
Completion: n

Prompt: How was CSc1nc2c(c(C(F)(F)F)n1)CC(C)CC2 (centres undefined) classified in this test?
Completion: n

Prompt: // outcome(item) with item = `Cc1nc(N)sc1C(=O)N1N=N1`
Completion: n

Prompt: Write down the call the test reported for this compound. Item: `O=C1CNC(=O)c2c(nc3n2CCC3)N1`
Completion: n

Prompt: So what was the verdict on `C/C=C/C(=O)N1c2ccc(C)cc2C(C)=CC1(C)C` in this test?
Completion: n

Prompt: Please let me know the test result on file for `COc1ccc(OC)c(NC(=O)Cc2c(C(=O)O)n(C)c3ccc(C)cc23)c1` .
Completion: n

Prompt: I would be grateful if you could indicate the recorded call for `O=C(OCC(=O)N1CCCC1=O)c1cc(Cl)ccc1O` .
Completion: n

Prompt: Test call for this compound, please: `Cc1ccc2c(/C=C/c3ccc(N(C)C)cc3)ccnc2c1C`
Completion: n

Prompt: Test call, this compound: `N#C/C(=C\c1ccc(O)c([N+](=O)[O-])c1)c1nc2ccccc2s1`
Completion: y

Prompt: Which result was noted for this compound in the test: `O=C(O)c1ccc(C=C(c2nc3ccccc3s2)c2nc3ccccc3s2)cc1`
Completion: y

Prompt: Dear all, I need the recorded test outcome for `COc1ccc(OC)c2c(/C=C/c3c(C)[nH]c4ccccc34)ccnc12` , thank you.
Completion: n

Prompt: Record request — test call for `CCN(CC)c1ccc2oc(=O)c(C)nc2c1`
Completion: n

Prompt: Each compound tested received a call. Report the one for `COC(=O)c1sc(-c2ccccc2)cc1NC(C)=O` .
Completion: n

====

Give activity change, negative = inhibition for every item shown.
# protocol.details: qHTS Assay for Lipid Storage Modulators (AID 1519); for activity change, negative = inhibition: % is set by controls: 0 for no effect and ±100 for the full control effect
# condition.description: Drosophila S3 cells, BODIPY lipid droplet/cell ratio, laser cytometry; at 57.5 µM (top of the series); cells loaded with oleic acid
Inconclusive results are not listed. Peptide text beside a SMILES is read from it.
Answers are plain numbers, in %.

| compound | reported.metric | recorded.result |
| --- | --- | --- |
| CC(=O)NC(CC(=O)O)C(=O)NC(CCC(=O)O)C(=O)O (stereo not drawn) (Ac-Asp-Glu-OH; configuration not given here) | activity change, negative = inhibition | 4.52 |

Please give activity change, negative = inhibition, item by item, for the list that follows.
1. CC(=O)OC1CC(O)C(C)(C)C2CC(OC(C)=O)[C@]3(C)C(CC[C@@]4(C)C(c5ccoc5)OC(=O)C5OC534)[C@]12C (some centres undefined)
2. Cn1nnnc1SCC1=C(C(=O)O)N2C(=O)C(NC(=O)C(OC=O)c3ccccc3)C2SC1 (centres undefined)
3. Cc1cc(=O)oc2c(O)c(O)ccc12
4. COC1=CC(C)C2CC3OC(=O)CC4C(C)=C(OC)C(=O)C([C@]2(C)C1=O)[C@]34C (some centres undefined)

Completion:
1. 4.32
2. 4.18
3. -5.44
4. 1.13

====

Would you kindly list max response for each of these compounds?
# protocol.details: qHTS Assay for Lipid Storage Modulators (AID 1519)
# condition.description: Drosophila S3 cells, BODIPY lipid droplet/cell ratio, laser cytometry; measured here: lipid channel max response; cells loaded with oleic acid
Records with an inconclusive call do not appear.
Give bare numbers, in %.

Examples with their reported max response follow.
| compound | recorded.result |
| --- | --- |
| C[C@@]12C=CC(=O)C=C1CC[C@@H]1[C@@H]2[C@H](O)C[C@]2(C)[C@@H]1CC[C@]2(O)C(=O)CO | -3.94 |
| CC1OC(n2cc(F)c(=O)[nH]c2=O)C(O)C1O (stereo not drawn) | 19.9 |
| C=C1C2CC[C@@]3(C)C(c4ccoc4)OC(=O)C[C@@]13OC1CC(=O)C(C)(C)C(C(O)C(=O)OC)[C@]12C (stereo partly drawn) | 18.5 |
| COc1cc2ccc(=O)oc2c(O)c1O | 11.4 |
| COc1cc2c(cc1O)C(Cc1ccc(O)cc1)N(C)CC2 (stereo not drawn) | 17.7 |

Batch request: max response per item, same order as input.
1. CSC(N)=NCCCC(N)C(=O)O (stereo not drawn)
2. CCC(C(=O)O)c1ccccc1 (stereo not drawn)

Completion:
8.49
10.3

Prompt: Could you tell me which max response is on file for `CCOC(=O)c1c(C)cc(O)cc1O` ?
Completion: 14.3

====

# system.name: Rap guanine nucleotide exchange factor 3 (Homo sapiens)
# protocol.details: Counterscreen qHTS for antagonist of cAMP-regulated guanine nucleotide exchange factor 3 (EPAC1) (AID 1645888);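 note: fluorescence loss as bound BODIPY-GDP is released from Rap1B; % of control where 0% means no effect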
# condition.description: Rap1B-BODIPY-GDP nucleotide exchange, fluorescence; series mostly up to 154 µM
Results filed as inconclusive are left out. The source made the active and inactive calls. Calls come from the whole dose curve; as a rule, active = well fitted inhibition curve with a large enough effect; inconclusive = small, poorly fitted or top-dose-only effect; inactive = no such curve, though single readings can be large or run the other way.
reported.metric: activity change, negative = inhibition

Please review the following examples before continuing.
| molecule | reported.metric | recorded.result |
| --- | --- | --- |
| CCOC(=O)C1CCN(C(c2cc(OC)c(OC)c(OC)c2)c2sc3nc(C)nn3c2O)CC1 (stereo unspecified) | activity change, negative = inhibition | -38.9% [at 30.8 µM] (inactive) |
| Cc1cccc(-n2nc(C)c(C(=O)Nc3cc(C)ccc3C)c2-n2cccc2)c1 | activity change, negative = inhibition | inactive |
| COc1cccc(NC(=O)CN(C)C(=O)CNC(=O)c2ccc(Oc3ccccc3)cc2)c1 | activity change, negative = inhibition | -3.89% [at 30.8 µM] (inactive) |
| CN1CCS/C1=C/C=C1\SC(=S)N(CC(=O)O)C1=O | activity change, negative = inhibition | 62.8% [at 30.8 µM] (inactive) |
| Cc1ccc2nc(N3C(=O)C(O)=C(C(=O)c4ccc(C)o4)C3c3cccc(O)c3)sc2c1 (stereo unspecified) | activity change, negative = inhibition | inactive |
| Cc1ccc2[nH]cc(C(c3ccccc3)c3ccc(C)s3)c2c1 (stereo unspecified) | activity change, negative = inhibition | inactive |
| Cc1ccc(NC(=O)c2ccc(Cl)cc2Cl)c(C(=O)c2ccccc2)c1 | activity change, negative = inhibition | inactive |
| CC1(Cc2ccc(Cl)cc2)C(=O)Nc2ccc(-c3cccnc3)cc21 (stereo unspecified) | activity change, negative = inhibition | inactive |

Please state, for each entry, its recorded activity change, negative = inhibition.
1. CC1CC1c1ccc(/C=C(\C#N)C(=O)Nc2ccccc2Cl)o1 (stereo unspecified)
2. CC[C@@]1(c2ccccc2OC)ON(c2ccccc2C(F)(F)F)C1=O
3. CCOc1cc(CNc2ccc(O)cc2)cc(Br)c1OCc1ccccc1

Completion:
-9.3% [at 30.8 µM] (inactive)
inactive
inactive

====

# system.name: Rap guanine nucleotide exchange factor 3 (Homo sapiens)
# protocol.details: Confirmatory qHTS for antagonist of cAMP-regulated guanine nucleotide exchange factor 3 (EPAC1) (AID 1645880); note: nearly all actives have a fitted effect of over 55% in size
# condition.description: EPAC1 Rap1B-BODIPY-GDP exchange, fluorescence; series mostly up to 115 µM
Inconclusive results are not listed. Active and inactive are the calls of the source. Calls follow the shape of the dose curve; as a rule, active = well fitted inhibition curve with a large enough effect; inconclusive = small, poorly fitted or top-dose-only effect; inactive = no such curve, though single readings can be large or run the other way.
The reply should be one of these categories: 1 for active, -1 for inactive

These solved cases illustrate the format of a correct answer.
| compound | system.name | assigned.label |
| --- | --- | --- |
| COc1ccc(OC)c(Nc2ncc3c(n2)CCN(Cc2cc(OC)c(OC)c(OC)c2)C3)c1 | Rap guanine nucleotide exchange factor 3 (Homo sapiens) | -1 |
| CSCCC(C(=O)O)N1C(=O)c2ccc(C(=O)O)cc2C1=O (configuration not stated) | Rap guanine nucleotide exchange factor 3 (Homo sapiens) | -1 |

Prompt: Please let me know the test result on file for `O=C(OCc1c(-c2ccccc2)ncc2ccccc12)c1ccccc1C(F)(F)F` .
Completion: -1

Prompt: // return assay outcome for `COc1ccc(CCNC(=O)CSc2nc3nc(C)c(Cc4ccc(C)cc4)c(C)n3n2)cc1OC`
Completion: -1

Prompt: Name the outcome recorded for CCCC1C2CN(C(C)C)CC=C2C(C#N)=C(N)C1(C#N)C#N (configuration not stated) in the assay.
Completion: 1

Prompt: Assay result, entry OC1(c2ccccc2)CC(c2ccccc2)c2ccccc2O1 (configuration not stated) — outcome?
Completion: -1

Prompt: Please share the test call associated with CC(=O)NC(c1ccccc1)c1cc(Cl)c2cccnc2c1O (configuration not stated) .
Completion: -1

Prompt: Hi team, can someone confirm the assay call for `Cc1ccc(NC(=O)c2ccc(Cl)c(S(=O)(=O)N3CCc4ccccc43)c2)nc1` ?
Completion: -1

Prompt: Hi team, can someone confirm the assay call for COC(=O)C1=CN(c2ccc(F)cc2)C(N)=C(C#N)C1c1cccc(OC)c1OC (configuration not stated) ?
Completion: -1

Numbers sourced from PubChem BioAssay (NCATS).
